Assay: Decomposition kinetics of CV-8972 in media simulating the GI tract, 37° C., 0.2 mg/mL (HPLC)
Format: physicochemical
Settings: FaSSGF, pH 1.6, FaSSGF, pH 1.6
measuredAttribute: half-life at 0.2 mg/mL (h)
# value in h; strip the unit string

q: Data request, read-out half-life at 0.2 mg/mL, for COc1ccc(CN2CCN(CCOC(=O)c3cccnc3)CC2)c(OC)c1OC [CV-8972]
a: 48.5

---

Experiment: pH stability profile of a 1 mg/mL solution of CV-8972 at 23° C.
Assay type: physicochemical
Conditions: pH 2.74, Water
measuredAttribute: half-life at 1 mg/mL (h)
# value in h; strip the unit string

q: Data request, read-out half-life at 1 mg/mL, for COc1ccc(CN2CCN(CCOC(=O)c3cccnc3)CC2)c(OC)c1OC [CV-8972]
a: 134

---

Experiment: pH stability profile of a 1 mg/mL solution of CV-8972 at 23° C.
Type: physicochemical
Details: 20 mM ammonium acetate buffer, pH 5.05, 20 mM Am. Acetate
measuredAttribute: half-life at 1 mg/mL (days)
# value in days; strip the unit string

q: Data request, read-out half-life at 1 mg/mL, for COc1ccc(CN2CCN(CCOC(=O)c3cccnc3)CC2)c(OC)c1OC
a: 27.4

---

Assay: pH stability profile of a 1 mg/mL solution of CV-8972 at 23° C.
Assay type: physicochemical
Details: 20 mM phosphate buffer, pH 3.52, 20 mM Phos
measuredAttribute: half-life at 1 mg/mL (days)
# value in days; strip the unit string

q: Data request, read-out half-life at 1 mg/mL, for COc1ccc(CN2CCN(CCOC(=O)c3cccnc3)CC2)c(OC)c1OC
a: 10.6

---

Assay: pH stability profile of a 1 mg/mL solution of CV-8972 at 23° C.
Assay type: physicochemical
Details: 20 mM phosphate buffer, pH 6.88, 20 mM Phos
Protocol: The pH stability profile is summarized and shown in Table 2 for a 1 mg/mL solution of CV-8972 at 23° C. The hydrolysis proceeds via the first step shown in FIG. 1, as Nicotinic acid and CV-8814 are the only decomposition products generated. The optimal pH for solution stability appears to be around pH 5-5.1 for a 1 mg/mL solution with acid-catalyzed hydrolysis increasing at pH values less than 5.0 and base-catalyzed hydrolysis increasing above pH 5.0.
measuredAttribute: half-life at 1 mg/mL (h)
# value in h; strip the unit string

q: Data request, read-out half-life at 1 mg/mL, for COc1ccc(CN2CCN(CCOC(=O)c3cccnc3)CC2)c(OC)c1OC [CV-8972]
a: 33.6

---

Test: Decomposition kinetics of CV-8972 in media simulating the GI tract, 37° C., 0.2 mg/mL (HPLC)
Type: physicochemical
Details: 0.1M HCl, pH 1, 0.1M HCl, pH 1.0, no surfactants
measuredAttribute: half-life at 0.2 mg/mL (h)
# value in h; strip the unit string

q: Data request, read-out half-life at 0.2 mg/mL, for COc1ccc(CN2CCN(CCOC(=O)c3cccnc3)CC2)c(OC)c1OC
a: 3.13

---

Assay: pH stability profile of a 1 mg/mL solution of CV-8972 at 23° C.
Type: physicochemical
Conditions: 20 mM phosphate buffer, pH 6.5, 20 mM Phos
measuredAttribute: half-life at 1 mg/mL (h)
# value in h; strip the unit string

q: Data request, read-out half-life at 1 mg/mL, for COc1ccc(CN2CCN(CCOC(=O)c3cccnc3)CC2)c(OC)c1OC
a: 61.9

---

Test: Decomposition kinetics of CV-8972 in media simulating the GI tract, 37° C., 0.2 mg/mL (HPLC)
Assay type: physicochemical
Conditions: FaSSIF, pH 6.5, FaSSIF, pH 6.5
measuredAttribute: half-life at 0.2 mg/mL (min)
# value in min; strip the unit string

q: Data request, read-out half-life at 0.2 mg/mL, for COc1ccc(CN2CCN(CCOC(=O)c3cccnc3)CC2)c(OC)c1OC
a: 810

---

Experiment: Decomposition kinetics of CV-8972 in media simulating the GI tract, 37° C., 0.2 mg/mL (HPLC)
Assay type: physicochemical
Conditions: pH 6, BiCarb adj (0.1M HCl neutralized with sodium bicarbonate), pH 6-8.2
measuredAttribute: half-life at 0.2 mg/mL (h)
# value in h; strip the unit string

q: Data request, read-out half-life at 0.2 mg/mL, for COc1ccc(CN2CCN(CCOC(=O)c3cccnc3)CC2)c(OC)c1OC
a: 1.52
